TARGET DESC: N-terminally GST-tagged human full length recombinant Mps-1 kinase (Homo sapiens)
Construct: N-terminally GST-tagged human full length recombinant Mps-1 kinase; purchased Invitrogen, Karslruhe, Germany PV4071
Sequence (P33981 whole entry): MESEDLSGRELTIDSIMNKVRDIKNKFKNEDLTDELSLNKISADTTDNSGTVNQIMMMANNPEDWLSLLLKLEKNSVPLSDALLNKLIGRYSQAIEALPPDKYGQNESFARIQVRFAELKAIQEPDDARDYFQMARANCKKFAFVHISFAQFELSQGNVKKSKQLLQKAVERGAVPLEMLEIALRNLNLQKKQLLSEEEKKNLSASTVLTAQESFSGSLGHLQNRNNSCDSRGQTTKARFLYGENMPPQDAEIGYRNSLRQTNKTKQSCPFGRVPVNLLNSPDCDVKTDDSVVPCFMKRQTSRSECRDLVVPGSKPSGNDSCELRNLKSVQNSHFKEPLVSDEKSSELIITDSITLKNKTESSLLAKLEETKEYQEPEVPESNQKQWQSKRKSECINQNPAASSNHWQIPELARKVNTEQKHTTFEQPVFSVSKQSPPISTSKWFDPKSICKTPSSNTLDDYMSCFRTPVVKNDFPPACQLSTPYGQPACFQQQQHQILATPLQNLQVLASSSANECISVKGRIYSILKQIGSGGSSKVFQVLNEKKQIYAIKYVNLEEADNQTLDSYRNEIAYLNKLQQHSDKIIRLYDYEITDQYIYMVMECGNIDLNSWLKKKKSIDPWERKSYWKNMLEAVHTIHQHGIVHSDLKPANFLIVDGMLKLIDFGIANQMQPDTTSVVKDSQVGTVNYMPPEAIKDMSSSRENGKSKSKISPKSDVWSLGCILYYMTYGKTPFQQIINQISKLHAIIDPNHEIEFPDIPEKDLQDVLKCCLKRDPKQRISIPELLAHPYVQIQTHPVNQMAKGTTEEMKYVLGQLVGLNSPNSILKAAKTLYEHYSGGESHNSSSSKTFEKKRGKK
ASSAY: Mps-1 kinase assay (TR-FRET)
Type: biochemical
CONDITIONS USED: Mps1 IC50 [nM], 10 μM ATP, 1 μM peptide substrate, 60 min at 22° C.
QUANTITY KIND: IC50 (nM)

Known results for molecules:
1. Cc1cc(-c2cnc3c(NCC(O)C(F)(F)F)cc(-c4ccnn4C)nn23)ccc1C(=O)NC1CC1 (racemic) [Example 208] = 2
2. Cc1cc(-c2cnc3c(NCC(C)(C)O)cc(NC4CCNC4)nn23)ccc1C(=O)NC1CC1 (racemic) [Example 272] = 21.1

[P] Cc1cc(-c2cnc3c(NCC(C)(C)O)cc(Nc4ccc(F)cc4)nn23)ccc1C(=O)NC1CC1 [Example 305]
[Q] CC(=O)Nc1ccccc1-c1cc(NCC(C)C)c2ncc(-c3ccc(C(=O)NC4CC4)cc3)n2n1 [Example 107]
// compare measured IC50, left P , right Q , return larger Mark your answer with the label of the selected entry.
Q
(Q: 35.5 nM, P: 0.6 nM)
